Listed here: items and their measured % dissolution/disruption/inhibition Tau (result ± S.D.).
target: aggregated Tau-441 (Homo sapiens, UniProt P10636); construct: purchased rPeptide; test: Thioflavin T fluorometry, dissolution/disruption/inhibition of preformed Tau aggregates; type: biochemical; conditions: Tau:test compound wt/wt ratio 1:0.01; 3 days at 37° C.
Sequence (P10636 1-441 isoform P10636-8): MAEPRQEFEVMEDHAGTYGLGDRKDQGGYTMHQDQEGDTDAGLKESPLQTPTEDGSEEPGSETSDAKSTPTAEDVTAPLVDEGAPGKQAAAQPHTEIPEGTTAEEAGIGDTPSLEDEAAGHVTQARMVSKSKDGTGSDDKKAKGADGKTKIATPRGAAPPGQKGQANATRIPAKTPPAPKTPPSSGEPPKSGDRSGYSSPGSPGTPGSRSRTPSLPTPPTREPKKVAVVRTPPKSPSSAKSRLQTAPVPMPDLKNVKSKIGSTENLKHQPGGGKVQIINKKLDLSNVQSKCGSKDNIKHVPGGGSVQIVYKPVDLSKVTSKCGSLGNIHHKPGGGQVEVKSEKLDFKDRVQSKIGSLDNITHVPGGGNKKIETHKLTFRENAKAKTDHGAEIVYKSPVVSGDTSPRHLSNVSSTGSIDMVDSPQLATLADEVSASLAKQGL
Numeric answer only, unit % assumed.

[
  {
    "COMPOUND": "O=C(Nc1ccc(O)c(O)c1)C(=O)Nc1ccc(O)c(O)c1 [Compound 63, oxalic acid bis(3,4-dihydroxyanilide)]",
    "ENDPOINT_VALUE": 16.5
  },
  {
    "COMPOUND": "Oc1ccc(CCc2ccc(O)c(O)c2)cc1O [Compound 4, 1,2-bis(3,4-dihydroxyphenyl)ethane]",
    "ENDPOINT_VALUE": 68.0
  },
  {
    "COMPOUND": "Oc1ccc(Cc2ccc(O)c(O)c2)cc1O [Compound 3, 3,4,3′,4′-Tetrahydroxydiphenylmethane]",
    "ENDPOINT_VALUE": 54.1
  }
]

Below: the item to evaluate.
Fill blank: measured % dissolution/disruption/inhibition Tau (result ± S.D.) of the compound O=C(Nc1ccc(O)c(O)c1)Nc1ccc(O)c(O)c1 [Compound 76, 1,3-Bis(3,4-dihydroxyphenyl)urea] is ____.
54.1

This collection of values is drawn from patent US20150038591A1.
